Target: T1, hPD-1-his (human, UniProt Q15116 25-167)
T1 construct: domain: IgV domain; monomer in solution; biotin-labelled where captured by streptavidin; also called biotin-hPD-1-his
T1 sequence (Q15116 other isoform, or with tags, fused parts or gaps limits assumed): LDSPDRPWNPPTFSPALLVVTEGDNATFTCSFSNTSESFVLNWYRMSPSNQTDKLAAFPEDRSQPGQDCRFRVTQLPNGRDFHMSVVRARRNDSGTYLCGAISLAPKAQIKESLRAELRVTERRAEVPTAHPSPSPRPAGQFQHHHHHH
Experiment: ELISA, captured hPD-1-his
QUANTITY_NAME: pEC50
Here pEC50 is given on a logarithmic scale as minus log10 of the concentration in mol/L.

Completed entries (count: 3):
19B10 (antibody, human IgG1, V domains shown) VH: EVQLLESGGGLVQPGGSLRLSCAASGFTFSSYAMHWVRQAPGKGLEWVSGISNSGGNTYYADSVKGRFTISRDNSKNTLYLQMNSLRAEDTAVYYCARDNYYYYMDVWGKGTTVTVSS VL: DIQMTQSPSSLSASVGDRVTITCRASQSVSTWLAWYQQKPGKAPKLLIYAASNLETGVPSRFSGSGSGTDFTLTISSLQPEDFATYYCQQTYSTPYTFGQGTKLEIK    8.27
23A8 (antibody, human IgG1, V domains shown) VH: EVQLLESGGGLVQPGGSLRLSCAASGFTFSSSAMHWVRQAPGKGLEWVSGISGSGSSTYYADSVKGRFTISRDNSKNTLYLQMNSLRAEDTAVYYCARDNNYYYYMDVWGKGTTVTVSS VL: DIQMTQSPSSLSASVGDRVTITCRASQSIGTWLAWYQQKPGKAPKLLIYAASTLRSGVPSRFSGSGSGTDFTLTISSLQPEDFATYYCQQSYSTPYTFGQGTKLEIK    9.28
23A11 (antibody, human IgG1, V domains shown) VH: QVQLVQSGAEVKKPGSSVKVSCKASGYTFTDYSLHWVRQAPGQGLEWMGEVIPMFDTAYYAQTFQGRVTITADESTSTAYMELSSLRSEDTAVYYCAREPFTMVRGGRYYYYGMDVWGQGTTVTVSS VL: DIQMTQSPSSLSASVGDRVTITCRASQNINKNLNWYQQKPGKAPKLLIYDASNLQSGVPSRFSGSGSGTDFTLTISSLQPEDFATYYCQHSETFGQGTKVEIK    9.00

Then there is this binder:
Any idea what pEC50 was measured for 24H9 (antibody, human IgG1, V domains shown) VH: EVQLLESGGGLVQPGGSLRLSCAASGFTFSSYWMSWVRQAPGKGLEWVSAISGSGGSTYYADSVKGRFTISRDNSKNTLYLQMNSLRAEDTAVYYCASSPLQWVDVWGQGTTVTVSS VL: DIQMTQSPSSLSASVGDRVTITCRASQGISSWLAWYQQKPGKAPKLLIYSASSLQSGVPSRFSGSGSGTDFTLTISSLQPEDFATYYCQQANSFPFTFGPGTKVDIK ?
8.88
